- Test system: 323965-272-R-J2-PDC complex spheroid viability;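 note: spheroids exposed to agents for seven days before readout; percent of DMSO vehicle control wells so 100% = untreated growth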
- ASSAY DETAILS: Anticancer human tumor 323965-272-R-J2-PDC patient-derived pancreatic carcinoma cell line growth inhibition [CLK]
- STUDY CONDITIONS: second compound 0.316 µM; first compound 3.16 µM; active compounds read low

| COMPOUND | viability, T/C / % |
| --- | --- |
| CC(Nc1ccc2c(c1)OCCn1cc(N3C(=O)OCC3C(F)F)nc1-2)C(N)=O (centres undefined) + CNC(=O)c1ccc(Nc2nc(OC3CCCC3)c3c(-c4ccc5nc(C)oc5c4)c[nH]c3n2)c(OC)c1 | 39.9 |
| C#Cc1c(F)ccc2cc(O)cc(-c3ncc4c(N5CC6CCC(C5)N6)nc(OCC56CCCN5CC(F)C6)nc4c3F)c12 (centres undefined) + CNC(=O)c1ccc(Nc2nc(OC3CCCC3)c3c(-c4ccc5nc(C)oc5c4)c[nH]c3n2)c(OC)c1 | 35.8 |
| COC1C=CCC(C)C(C)S(=O)(=O)NC(=O)c2ccc3c(c2)N(CC2CCC21)CC1(CCCc2cc(Cl)ccc21)CO3 (centres undefined) + CNC(=O)c1ccc(Nc2nc(OC3CCCC3)c3c(-c4ccc5nc(C)oc5c4)c[nH]c3n2)c(OC)c1 | 39.1 |
| CCCS(=O)(=O)Nc1ccc(F)c(C(=O)c2c[nH]c3ncc(-c4ccc(Cl)cc4)cc23)c1F + CNC(=O)c1ccc(Nc2nc(OC3CCCC3)c3c(-c4ccc5nc(C)oc5c4)c[nH]c3n2)c(OC)c1 | 88.8 |
| CC(=O)O[C@H]1C(=O)[C@@]2(C)[C@H]([C@H](OC(=O)c3ccccc3)[C@]3(O)C[C@H](OC(=O)[C@H](O)[C@@H](NC(=O)c4ccccc4)c4ccccc4)C(C)=C1C3(C)C)[C@]1(OC(C)=O)CO[C@@H]1C[C@@H]2O + CN1CCN(c2cc(C(=O)Nc3cc4cc(-c5cnn(C)c5)ccc4cn3)ccn2)CC1 | 17.2 |
| O=c1[nH]cc(F)c(=O)[nH]1 + CN1CCN(c2cc(C(=O)Nc3cc4cc(-c5cnn(C)c5)ccc4cn3)ccn2)CC1 | 24.5 |
| O=C(c1cc(Cc2n[nH]c(=O)c3ccccc23)ccc1F)N1CCN(C(=O)C2CC2)CC1 + CN1CCN(c2cc(C(=O)Nc3cc4cc(-c5cnn(C)c5)ccc4cn3)ccn2)CC1 | 24.9 |
| CC1(C)CCC(CN2CCN(c3ccc(C(=O)NS(=O)(=O)c4ccc(NCC5CCOCC5)c([N+](=O)[O-])c4)c(Oc4cnc5[nH]ccc5c4)c3)CC2)=C(c2ccc(Cl)cc2)C1 + CN1CCN(c2cc(C(=O)Nc3cc4cc(-c5cnn(C)c5)ccc4cn3)ccn2)CC1 | 20.2 |
| C#Cc1c(F)ccc2cc(O)cc(-c3ncc4c(N5CC6CCC(C5)N6)nc(OCC56CCCN5CC(F)C6)nc4c3F)c12 (centres undefined) + CN1CCN(c2cc(C(=O)Nc3cc4cc(-c5cnn(C)c5)ccc4cn3)ccn2)CC1 | 17.8 |
| CC(=O)O[C@H]1C(=O)[C@@]2(C)[C@H]([C@H](OC(=O)c3ccccc3)[C@]3(O)C[C@H](OC(=O)[C@H](O)[C@@H](NC(=O)c4ccccc4)c4ccccc4)C(C)=C1C3(C)C)[C@]1(OC(C)=O)CO[C@@H]1C[C@@H]2O + CNC(=O)c1ccc(Nc2nc(OC3CCCC3)c3c(-c4ccc5nc(C)oc5c4)c[nH]c3n2)c(OC)c1 | 68.5 |
| O=C(c1cc(Cc2n[nH]c(=O)c3ccccc23)ccc1F)N1CCN(C(=O)C2CC2)CC1 + CNC(=O)c1ccc(Nc2nc(OC3CCCC3)c3c(-c4ccc5nc(C)oc5c4)c[nH]c3n2)c(OC)c1 | 73.2 |
| CCCS(=O)(=O)Nc1ccc(F)c(C(=O)c2c[nH]c3ncc(-c4ccc(Cl)cc4)cc23)c1F + CN1CCN(c2cc(C(=O)Nc3cc4cc(-c5cnn(C)c5)ccc4cn3)ccn2)CC1 | 32.3 |
| Nc1ccccc1NC(=O)c1ccc(CNC(=O)OCc2cccnc2)cc1 + CNC(=O)c1ccc(Nc2nc(OC3CCCC3)c3c(-c4ccc5nc(C)oc5c4)c[nH]c3n2)c(OC)c1 | 43.4 |
| O=c1[nH]cc(F)c(=O)[nH]1 + CNC(=O)c1ccc(Nc2nc(OC3CCCC3)c3c(-c4ccc5nc(C)oc5c4)c[nH]c3n2)c(OC)c1 | 50.6 |
